Test: Part 1 PK study: single oral 200 mg dose, fed (high-fat meal) versus fasted
Format: in vivo, human
Conditions: female, human, plasma, po, 200 mg, single oral 200 mg, fasted; mean

>  <molecule>
c1cnc(NCc2ccc(CNc3ncccn3)cc2)nc1 [Q-122]

>  <AUC(0-t)>
6400 ng·h/mL

$$$$

----------
Test: Part 1 PK study: single oral 200 mg dose, fed (high-fat meal) versus fasted
Format: in vivo, human
Conditions: female, human, plasma, po, 200 mg, single oral 200 mg, fed (high-fat meal); median
quantity-kind: half-life (h)

>  <smiles-string>
c1cnc(NCc2ccc(CNc3ncccn3)cc2)nc1

>  <measurement-units>
h

>  <recorded-value>
8.98

$$$$

----------
Experiment: Part 2 PK study: 200 mg QD versus 100 mg BID for 10 days under fed conditions
Type: in vivo, human
Settings: human, plasma, oral, 100 mg, 100 mg BID, fed, Day 10; median
Text: Part 2 involved analysing the PK parameters obtained following either single (QD) or twice daily (BD) dosing of a compound of formula (Ia) under fed conditions. […] For both Parts 1 and 2, samples were processed and analysed as follows. […] The analytes were separated by HPLC on a Phenomenex Synergi Polar-RP column, and the eluates monitored by an API4000 MS/MS detector in positive MRM mode. […]
quantity-kind: AUC(0-inf) (ng·h/mL)

>  <smiles-string>
c1cnc(NCc2ccc(CNc3ncccn3)cc2)nc1

>  <quantity-kind>
AUC(0-inf)

>  <recorded-value>
7310

$$$$

----------
Experiment: Part 2 PK study: 200 mg QD versus 100 mg BID for 10 days under fed conditions
Assay type: in vivo, human
Conditions: human, plasma, oral, 100 mg, 100 mg BID, fed, Day 10; median; read-out: Tmax
quantity-kind: Tmax (h)

>  <smiles-string>
c1cnc(NCc2ccc(CNc3ncccn3)cc2)nc1

>  <recorded-value>
2

$$$$

----------
Experiment: Part 2 PK study: 200 mg QD versus 100 mg BID for 10 days under fed conditions
Assay type: in vivo, human
Settings: human, plasma, oral, 200 mg, 200 mg QD, fed, Day 10; median; read-out: t½ (converted)

>  <smiles-string>
c1cnc(NCc2ccc(CNc3ncccn3)cc2)nc1

>  <half-life>
17.1 h

$$$$

----------
Assay: Part 2 PK study: 200 mg QD versus 100 mg BID for 10 days under fed conditions
Type: in vivo, human
Settings: human, plasma, oral, 200 mg, 200 mg QD, fed, Day 10; mean; read-out: Cmin
quantity-kind: concentration at 10 day (ng/mL)

>  <smiles-string>
c1cnc(NCc2ccc(CNc3ncccn3)cc2)nc1

>  <measurement-units>
ng/mL

>  <recorded-value>
73

$$$$

----------
Experiment: Part 2 PK study: 200 mg QD versus 100 mg BID for 10 days under fed conditions
Type: in vivo, human
Conditions: human, plasma, oral, 100 mg, 100 mg BID, fed, Day 1; median; read-out: t½ (converted)

>  <smiles-string>
c1cnc(NCc2ccc(CNc3ncccn3)cc2)nc1

>  <half-life, h>
5.1

$$$$
